The reported numbers originate from patent US20230331737A1.

Biological target: mTORC1 (Homo sapiens, UniProt P42345+P62942)
Construct: endogenous in cells
Experiment: mTORC1 inhibition in PC-3 cells, AlphaLISA of p70S6K pT389 levels
Conditions: mTORC1 as measured by inhibition of p70S6K pT389 levels, read-out: mTROC1 IC50
pIC50: −log10 of the molar value.
Recorded pIC50 values for a group of compounds are listed next.

Sure, the documented pIC50 for COCCO[C@@H]1C[C@@H]2CC[C@@H](C)[C@@](O)(O2)C(=O)C(=O)N2CCCC[C@H]2C(=O)O[C@H]([C@H](C)C[C@@H]2CC[C@@H](OCCO)[C@H](OC)C2)CC(=O)[C@H](C)/C=C(\C)[C@@H](O)[C@@H](OC)C(=O)[C@H](C)C[C@H](C)/C=C/C=C/C=C/1C [Compound 40] is < 8.82

* * *

Known pKd of a selection of compounds
Target: FKBP12 ternary complex with FRB (Homo sapiens, UniProt P42345+P62942)
Assay: SPR assay to characterize ternary complex formation with FKBP12 (FRB injected over compound-saturated FKBP12)
Details: FRB dilutions with 100 nM test compound over immobilized FKBP12
pKd: −log10 of the molar value.

Field: example entries. Status: answers known.
compound: CO[C@@H]1C[C@H](C[C@@H](C)[C@@H]2CC(=O)[C@H](C)/C=C(\C)[C@@H](O)[C@@H](OC)C(=O)[C@H](C)C[C@H](C)/C=C/C=C/C=C(\C)[C@@H](OC3CC3)C[C@@H]3CC[C@@H](C)[C@@](O)(O3)C(=O)C(=O)N3CCCC[C@H]3C(=O)O2)CC[C@H]1OCCO [Compound 527]
recorded.endpoint: pKd
result: > 6.30

compound: CO[C@@H]1C[C@H](C[C@@H](C)[C@@H]2CC(=O)[C@H](C)/C=C(\C)[C@@H](O)[C@@H](OC)C(=O)[C@H](C)C[C@H](C)/C=C/C=C/C=C(\C)[C@H](OCCCCO)C[C@@H]3CC[C@@H](C)[C@@](O)(O3)C(=O)C(=O)N3CCCC[C@H]3C(=O)O2)CC[C@H]1OCCCN1CCOCC1 [Compound 27]
recorded.endpoint: pKd
result: 5.96 to 6.30

compound: COCCO[C@H]1C[C@@H]2CC[C@@H](C)[C@@](O)(O2)C(=O)C(=O)N2CCCC[C@H]2C(=O)O[C@H]([C@H](C)C[C@@H]2CC[C@@H](OCCO)[C@H](OC)C2)CC(=O)[C@H](C)/C=C(\C)[C@@H](O)[C@@H](OC)C(=O)[C@H](C)C[C@H](C)/C=C/C=C/C=C/1C [Compound 439]
recorded.endpoint: pKd
result: > 6.30

compound: CO[C@@H]1C[C@H](C[C@@H](C)[C@@H]2CC(=O)[C@H](C)/C=C(\C)[C@@H](O)[C@@H](OC)C(=O)[C@H](C)C[C@H](C)/C=C/C=C/C=C(\C)[C@H](OCC3COC3)C[C@@H]3CC[C@@H](C)[C@@](O)(O3)C(=O)C(=O)N3CCCC[C@H]3C(=O)O2)CC[C@H]1O [Compound 122]
recorded.endpoint: pKd
result: < 5.96

The reported value for COCCO[C@H]1C[C@@H]2CC[C@@H](C)[C@@](O)(O2)C(=O)C(=O)N2CCCC[C@H]2C(=O)O[C@H]([C@H](C)C[C@@H]2CC[C@@H](OCCCO)[C@H](OC)C2)CC(=O)[C@H](C)/C=C(\C)[C@@H](O)[C@@H](OC)C(=O)[C@H](C)C[C@H](C)/C=C/C=C/C=C/1C [Compound 427] in terms of pKd is > 6.30

Summary for this compound, COCCO[C@@H]1C[C@@H]2CC[C@@H](C)[C@@](O)(O2)C(=O)C(=O)N2CCCC[C@H]2C(=O)O[C@H]([C@H](C)C[C@@H]2CC[C@@H](OCCCO)[C@H](OC)C2)CC(=O)[C@H](C)/C=C(\C)[C@@H](O)[C@@H](OC)C(=O)[C@H](C)C[C@H](C)/C=C/C=C/C=C/1C [Compound 28] : pKd is 5.96 to 6.30

// CO[C@@H]1C[C@H](C[C@@H](C)[C@@H]2CC(=O)[C@H](C)/C=C(\C)[C@@H](O)[C@@H](OC)C(=O)[C@H](C)C[C@H](C)/C=C/C=C/C=C(\C)[C@@H](OC3CC3)C[C@@H]3CC[C@@H](C)[C@@](O)(O3)C(=O)C(=O)N3CCCC[C@H]3C(=O)O2)CC[C@H]1O [Compound 120] : pKd value = > 6.30

Sample CO[C@@H]1C[C@H](C[C@@H](C)[C@@H]2CC(=O)[C@H](C)/C=C(\C)[C@@H](O)[C@@H](OC)C(=O)[C@H](C)C[C@H](C)/C=C/C=C/C=C(\C)[C@H](OCC3COC3)C[C@@H]3CC[C@@H](C)[C@@](O)(O3)C(=O)C(=O)N3CCCC[C@H]3C(=O)O2)CC[C@H]1OCCO [Compound 75] ; pKd observed: < 5.96

Short answer for COCCO[C@H]1C[C@@H]2CC[C@@H](C)[C@@](O)(O2)C(=O)C(=O)N2CCCCC2C(=O)O[C@H]([C@H](C)C[C@@H]2CC[C@@H](OCCCN3CCN(C)CC3)[C@H](OC)C2)CC(=O)[C@H](C)/C=C(\C)[C@@H](O)[C@@H](OC)C(=O)[C@H](C)C[C@H](C)/C=C/C=C/C=C/1C (relative stereo) [Compound 431] : pKd was > 6.30

// CO[C@@H]1C[C@H](C[C@@H](C)[C@@H]2CC(=O)[C@H](C)/C=C(\C)[C@@H](O)[C@@H](OC)C(=O)[C@H](C)C[C@H](C)/C=C/C=C/C=C(\C)[C@H](OC3CC3)C[C@@H]3CC[C@@H](C)[C@@](O)(O3)C(=O)C(=O)N3CCCC[C@H]3C(=O)O2)CC[C@H]1O [Compound 519] : pKd value = > 6.30

Entry under test: CO[C@@H]1C[C@H](C[C@@H](C)[C@@H]2CC(=O)[C@H](C)/C=C(\C)[C@@H](O)[C@@H](OC)C(=O)[C@H](C)C[C@H](C)/C=C/C=C/C=C(\C)[C@@H](OCCc3ccccc3)C[C@@H]3CC[C@@H](C)[C@@](O)(O3)C(=O)C(=O)N3CCCC[C@H]3C(=O)O2)CC[C@H]1O [Compound 520] . Its pKd was > 6.30

pKd measured on CO[C@@H]1C[C@H](C[C@@H](C)[C@@H]2CC(=O)[C@H](C)/C=C(\C)[C@@H](O)[C@@H](OC)C(=O)[C@H](C)C[C@H](C)/C=C/C=C/C=C(\C)[C@H](OC3COC3)C[C@@H]3CC[C@@H](C)[C@@](O)(O3)C(=O)C(=O)N3CCCC[C@H]3C(=O)O2)CC[C@H]1O [Compound 124] = < 5.96

Measured pKd of CO[C@@H]1C[C@H](C[C@@H](C)[C@@H]2CC(=O)[C@H](C)/C=C(\C)[C@@H](O)[C@@H](OC)C(=O)[C@H](C)C[C@H](C)/C=C/C=C/C=C(\C)[C@@H](OCC3COC3)C[C@@H]3CC[C@@H](C)[C@@](O)(O3)C(=O)C(=O)N3CCCC[C@H]3C(=O)O2)CC[C@H]1O [Compound 521] : 5.96 to 6.30
